measured_on: T1, rhesus monkey TfR ectodomain fused to a mouse IgG1 Fc fragment (rhesus monkey, UniProt I0FKY7 89-760)
T1 construct: extracellular domain; not shown: mouse IgG1 Fc fragment
assay_summary: SPR, kinetic
Measured kon values are reported for all entries that follow.
Please respond with the number in M⁻¹ s⁻¹ and leave the unit unwritten.

| binder | kon, M⁻¹ s⁻¹ |
| --- | --- |
| B8^V32 (VHH) VHH: EVQLVESGGGVVQPGGSLRLSCAASGEIRSINFMRWYRQAPGKQREWVAGFTRDGSTNYPDSAKGRFTISRDNAKNTVYLQIDSLKPEDTAVYYCYMLDTWGQGTQVTVSS | 1.28e+06 |
| C5^V31 (VHH) VHH: EVQLVESGGGVVQPGGSLKLSCVASGTDRSINFIRWYRQAPGKQREFVAGFTATGNTNYADSMKGRFTISRDNTKNAVYLQIDSLKPEDTAVYYCYMLDKWGQGTQVTVSS | 524000 |

Consider the additional binder presented here.
Kindly indicate its recorded kon. Item: B8^V34 (VHH) VHH: EVQLVESGGGVVQPGGSLRLSCAASGEIRSINFMRWYRQAPGKQREWVAGFTRDGSTNYPDIAKGRFTISRDNAKNTVYLQIDSLKPEDTAVYYCYMLDTWGQGTQVTVSS
1.97e+06
